B1: r11_951_TrROS_Hall (parent)
chain: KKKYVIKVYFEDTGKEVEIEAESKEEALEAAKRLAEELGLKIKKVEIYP

Variants of: B1
method.notes: folding stability dG (cDNA display proteolysis); higher = more stable
assay.conditions: PBS, room temperature
observable: folding stability dG (kcal/mol)
Quick reminder: number only, in kcal/mol, skip the unit.

Query: Report folding stability dG for E29V please.
Reply: 4.53

Query: Using the record for E18T , report its folding stability dG.
Reply: 4.3

Query: Which folding stability dG reading was recorded for the variant E29H ?
Reply: 4.51

Query: folding stability dG for I6S ?
Reply: 3.42

Query: Endpoint output: folding stability dG of E16R . Value?
Reply: 4.22

Query: Reported folding stability dG, variant Y4I : ____
Reply: 4.29

Query: Reported folding stability dG for I42C : what is it?
Reply: 3.57

Query: Give its folding stability dG value. Item: E26K
Reply: 4.24

Query: GET /values?readout=folding stability dG&item= K41N
Reply: 4.28

Query: State the recorded folding stability dG for this entry: A35K
Reply: 3.58

Query: For the variant shown here, E18L , give the reported folding stability dG.
Reply: 4.46

Query: What folding stability dG value was documented for this variant, E26V ?
Reply: 4.24

Query: # query: folding stability dG of entry E20M
Reply: 4.42

Query: Give its folding stability dG value. Item: K24Y
Reply: 4.5

Query: What value of folding stability dG has been reported for the following variant? K2Y
Reply: 4.42

Query: Please report the recorded folding stability dG for P49V .
Reply: 4.45

Query: # input variant: I42Y ; wanted: its folding stability dG
Reply: 3.75

Query: Which folding stability dG value belongs to A27C ?
Reply: 4.23

Query: Suppose we examine the variant D12P ; what folding stability dG value has been reported?
Reply: 4.35

Query: I have this variant here, I47W , and I need its recorded folding stability dG.
Reply: 4.49

Query: Which folding stability dG value is on record for K41V ?
Reply: 4.34

Query: Can you look up the measured folding stability dG of K43Q for me?
Reply: 4.26

Query: Fill blank: measured folding stability dG of the variant L40A is ____.
Reply: 4.02

Query: What measured folding stability dG goes with L38E ?
Reply: 3.89

Query: Look up folding stability dG for this variant: I47M
Reply: 4.53

Query: Report folding stability dG for E46M please.
Reply: 4.49

Query: Given the variant E25Y , what is its reported folding stability dG?
Reply: 4.33

Query: Entry V17D : reported folding stability dG = ?
Reply: 3.74

Query: // returns reported folding stability dG for input E18C
Reply: 4.4

Query: Data request, read-out folding stability dG, for I6G
Reply: 3.82

Query: Need folding stability dG, item K24E
Reply: 4.54

Query: # get_value(readout='folding stability dG', item= Y9W )
Reply: 4.86

Query: folding stability dG lookup needed for Y9Q , thanks.
Reply: 4.09

Query: Sample A31W — what was its folding stability dG?
Reply: 4.25

Query: So what's the measured folding stability dG for this one? E18N
Reply: 4.16

Query: Given the variant L34D , what is its reported folding stability dG?
Reply: 2.95

Query: Name the reported folding stability dG value associated with the variant K24D
Reply: 4.37

Query: Name the recorded folding stability dG for I19R .
Reply: 3.57

Query: Please give the measured folding stability dG for this variant: V5K
Reply: 4.63

Query: Fill in: folding stability dG of A31S is ___
Reply: 4.2

Query: State the recorded folding stability dG for this entry: G39R
Reply: 4.43

Query: I'd like to know its folding stability dG. The variant in question is G14P
Reply: 4.26

Query: # lookup: folding stability dG of I19P
Reply: 0.94

Query: Need folding stability dG of K44Y , thanks.
Reply: 4.34

Query: Can you look up the measured folding stability dG of L34M for me?
Reply: 4.55

Query: What value of measured folding stability dG is listed for E11C ?
Reply: 4.63

Query: Using the record for E46H , report its folding stability dG.
Reply: 4.53

Query: Any idea what its folding stability dG is? The variant is R33G
Reply: 4.21

Query: Report folding stability dG for K41W please.
Reply: 4.11

Query: Which folding stability dG value is on record for I42W ?
Reply: 4.05

Query: # input variant: K24H ; wanted: its folding stability dG
Reply: 4.45

Query: Can you share its folding stability dG? I mean this variant: Y4V
Reply: 4.58

Query: Could you tell me which folding stability dG is on file for F10N ?
Reply: 2.58

Query: Which measured folding stability dG value corresponds to V5W ?
Reply: 4.62

Query: Would you kindly share the measured folding stability dG for A35T ?
Reply: 3.84

Query: Quick check: folding stability dG of T13K ?
Reply: 4.48

Query: Can you share its folding stability dG? I mean this variant: K15H
Reply: 4.54

Query: Entry K43N : reported folding stability dG = ?
Reply: 4.29

Query: Suppose we examine the variant E22Q ; what folding stability dG value has been reported?
Reply: 4.11

Query: I would be grateful if you could share the reported folding stability dG for K2F .
Reply: 4.57

Query: Looking for the measured folding stability dG of V5P , can you help?
Reply: 2.38

Query: Data request, read-out folding stability dG, for E46Y
Reply: 4.61

Query: Using the record for K1H , report its folding stability dG.
Reply: 4.46

Query: Looking for the measured folding stability dG of I19D , can you help?
Reply: 3.07

Query: Item E25W has what recorded folding stability dG?
Reply: 4.25

Query: Entry K44W has what folding stability dG?
Reply: 4.24

Query: May I ask what folding stability dG has been recorded for E26S ?
Reply: 4.39

Query: I am curious: what folding stability dG value has been reported for A21P ?
Reply: 2.03

Query: Need folding stability dG, item E37V
Reply: 4.6

Query: Returns the measured folding stability dG for the input variant. Input: V45E
Reply: 3.18

Query: Quick one: folding stability dG of V45P ?
Reply: 2.52

Query: Entry under review: V17Q . Reported folding stability dG?
Reply: 4

Query: Need folding stability dG of K3S , thanks.
Reply: 4.52

Query: Reported folding stability dG, variant K43H : ____
Reply: 4.33

Query: GET /values?readout=folding stability dG&item= A27Y
Reply: 3.79

Query: Using the record for K44T , report its folding stability dG.
Reply: 4.17

Query: Which folding stability dG reading was recorded for the variant A21H ?
Reply: 4.3

Query: folding stability dG lookup needed for K41T , thanks.
Reply: 4.32

Query: I have this variant here, E20H , and I need its recorded folding stability dG.
Reply: 4.42

Query: Report folding stability dG for G14A please.
Reply: 4.34

Query: Entry under review: K3Q . Reported folding stability dG?
Reply: 4.28

Query: What measured folding stability dG goes with K1V ?
Reply: 4.51

Query: Which folding stability dG is reported for this variant? A31R
Reply: 2.47
